Sourced from ChEMBL document CHEMBL3822400

experimental-details: Lipophilicity, log P of the compound at pH 7.5 by HPLC method
Format: physicochemical
applied-conditions: buffer
Field 'label' (enum: Y / N). Set to Y when logP is strictly under 4; else N.

| smiles-repr | classification |
| --- | --- |
| CCCN(CCC)C(=O)Cc1c(-c2ccc(OC)cc2)nn2c(CC)cc(CC)nc12 | Y |
| CCCCCCN(CCCCCC)C(=O)Cc1c(-c2ccc(OC)cc2)nn2c(CC)cc(CC)nc12 | N |
| CCc1cc(CC)n2nc(-c3ccc(OC)cc3)c(CC(=O)N(CC)c3ccccc3)c2n1 | Y |
| CCc1cc(CC)n2nc(-c3ccc(OC)cc3)c(CC(=O)N(CC(C)C)CC(C)C)c2n1 | Y |
| CCc1cc(CC)n2nc(-c3ccc(OC)cc3)c(CC(=O)N(Cc3ccccc3)Cc3ccccc3)c2n1 | Y |
| CCc1cc(CC)n2nc(-c3ccc(OC)cc3)c(CC(=O)N3CCCC3)c2n1 | Y |
